target.desc: LRRK2 Ser935 phosphorylation in SH-SY5Y cells over-expressing recombinant full length LRRK2 (Homo sapiens, UniProt Q5S007)
Construct: A BacMam virus expressing full length recombinant LRRK2 was purchased from Invitrogen; host or cells: SH-SY5Y human neuroblastoma cells transduced with BacMam LRRK2 virus
Sequence (Q5S007 whole entry): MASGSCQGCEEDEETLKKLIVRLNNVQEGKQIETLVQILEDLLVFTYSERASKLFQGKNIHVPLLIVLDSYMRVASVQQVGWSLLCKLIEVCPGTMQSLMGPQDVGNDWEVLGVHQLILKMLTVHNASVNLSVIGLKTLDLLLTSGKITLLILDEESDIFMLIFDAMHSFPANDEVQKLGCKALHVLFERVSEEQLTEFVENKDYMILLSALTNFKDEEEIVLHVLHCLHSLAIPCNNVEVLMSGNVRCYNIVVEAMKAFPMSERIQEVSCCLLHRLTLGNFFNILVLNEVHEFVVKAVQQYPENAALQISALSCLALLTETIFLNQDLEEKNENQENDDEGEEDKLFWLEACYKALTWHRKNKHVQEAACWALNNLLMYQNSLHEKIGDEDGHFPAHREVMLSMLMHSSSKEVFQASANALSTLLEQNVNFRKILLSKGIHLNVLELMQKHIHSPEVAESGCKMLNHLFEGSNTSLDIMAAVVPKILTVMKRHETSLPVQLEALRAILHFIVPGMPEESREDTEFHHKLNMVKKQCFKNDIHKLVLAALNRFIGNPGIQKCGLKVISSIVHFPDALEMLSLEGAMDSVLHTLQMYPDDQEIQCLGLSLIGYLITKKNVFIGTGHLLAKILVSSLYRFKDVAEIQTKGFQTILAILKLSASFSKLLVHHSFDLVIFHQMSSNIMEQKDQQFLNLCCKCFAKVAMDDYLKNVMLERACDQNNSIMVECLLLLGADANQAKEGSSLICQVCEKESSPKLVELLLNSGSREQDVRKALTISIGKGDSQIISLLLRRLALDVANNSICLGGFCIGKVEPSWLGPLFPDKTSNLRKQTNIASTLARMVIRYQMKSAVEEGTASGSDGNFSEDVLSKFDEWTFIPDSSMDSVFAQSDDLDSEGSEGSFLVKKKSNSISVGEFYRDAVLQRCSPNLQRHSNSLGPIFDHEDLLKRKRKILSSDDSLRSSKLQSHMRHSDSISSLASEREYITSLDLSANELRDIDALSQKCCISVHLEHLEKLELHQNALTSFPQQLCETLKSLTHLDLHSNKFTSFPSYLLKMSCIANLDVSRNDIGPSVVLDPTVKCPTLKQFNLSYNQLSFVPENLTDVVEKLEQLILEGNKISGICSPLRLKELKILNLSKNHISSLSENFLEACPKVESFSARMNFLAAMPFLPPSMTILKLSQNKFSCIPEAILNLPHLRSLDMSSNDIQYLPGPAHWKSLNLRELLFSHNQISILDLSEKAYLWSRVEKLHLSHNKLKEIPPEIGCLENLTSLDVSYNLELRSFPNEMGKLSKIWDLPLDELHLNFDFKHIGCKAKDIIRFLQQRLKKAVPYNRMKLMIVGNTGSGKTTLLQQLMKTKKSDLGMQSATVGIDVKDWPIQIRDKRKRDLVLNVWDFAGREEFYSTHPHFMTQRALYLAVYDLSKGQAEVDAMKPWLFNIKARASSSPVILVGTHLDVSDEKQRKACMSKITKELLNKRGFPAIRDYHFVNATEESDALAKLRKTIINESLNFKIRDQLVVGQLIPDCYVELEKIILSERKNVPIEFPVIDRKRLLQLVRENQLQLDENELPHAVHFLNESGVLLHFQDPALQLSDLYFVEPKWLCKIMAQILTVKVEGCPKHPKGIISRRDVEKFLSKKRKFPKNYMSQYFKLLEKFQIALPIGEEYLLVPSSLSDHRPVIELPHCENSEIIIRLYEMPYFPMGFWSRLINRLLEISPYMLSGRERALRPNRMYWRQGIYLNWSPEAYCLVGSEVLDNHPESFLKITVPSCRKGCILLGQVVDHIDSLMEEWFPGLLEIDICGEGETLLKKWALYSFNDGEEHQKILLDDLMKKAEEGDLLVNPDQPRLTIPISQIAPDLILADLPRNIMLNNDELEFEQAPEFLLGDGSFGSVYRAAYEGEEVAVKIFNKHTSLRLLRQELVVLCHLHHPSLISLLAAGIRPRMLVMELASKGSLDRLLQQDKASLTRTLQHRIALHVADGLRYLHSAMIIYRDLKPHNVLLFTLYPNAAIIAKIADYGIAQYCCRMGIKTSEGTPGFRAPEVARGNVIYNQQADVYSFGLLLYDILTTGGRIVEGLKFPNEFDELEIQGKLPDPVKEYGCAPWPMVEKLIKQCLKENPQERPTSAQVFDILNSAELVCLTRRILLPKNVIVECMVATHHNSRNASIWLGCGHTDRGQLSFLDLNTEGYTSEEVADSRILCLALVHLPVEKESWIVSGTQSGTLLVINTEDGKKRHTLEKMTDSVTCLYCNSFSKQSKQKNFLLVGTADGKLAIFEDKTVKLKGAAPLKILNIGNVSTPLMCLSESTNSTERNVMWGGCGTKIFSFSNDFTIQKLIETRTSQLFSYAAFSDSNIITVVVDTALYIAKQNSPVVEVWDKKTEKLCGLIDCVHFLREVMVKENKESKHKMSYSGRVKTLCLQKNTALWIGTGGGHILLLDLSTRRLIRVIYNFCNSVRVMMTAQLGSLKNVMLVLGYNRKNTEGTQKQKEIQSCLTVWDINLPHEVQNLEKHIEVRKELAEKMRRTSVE
measurement.notes: Recombinant cellular LRRK2 AlphaScreen assay
Type: cell-based
condition.label: human neuroblastoma SH-SY5Y cells, BacMam full length LRRK2, 60 minutes with compound, read-out: pIC50 in the recombinant cellular LRRK2 AlphaScreen assay (converted)
observed.property: IC50

Record excerpt, results attached:
COc1nc(N2C[C@@H]3C[C@H]2CO3)cc(-n2ncc3cc(C)c(C4CCN(CCO)CC4F)cc32)n1 (single isomer, unassigned) = ≤ 1000 nM
COc1nc(N2C[C@H]3C[C@@H]2CO3)cc(-n2ncc3cc(Cl)c(C4CCN(C5COC5)CC4)cc32)n1 = ≤ 10 nM
Cc1nc(N2C[C@@H]3C[C@H]2CO3)cc(-n2ncc3cc(C)c([C@H]4CC[C@@](C)(O)CC4)cc32)n1 = ≤ 1000 nM
COc1nc(N2CC3CC2CC3C(=O)O)cc(-n2ncc3cc(Cl)c(O[C@H]4CCOC4)cc32)n1 (single isomer, unassigned) = ≤ 1000 nM
COc1nc(N2CC3CC(C2)O3)cc(-n2ncc3cc(C)c(C4CCN(C5COC5)CC4)cc32)n1 = ≤ 1000 nM

// switching to the query compound
## Input Input [2H]C([2H])([2H])Oc1nc(N2C[C@@H]3C[C@H]2CO3)cc(-n2ncc3cc(C)c(C4CCN(C5COC5)CC4)cc32)n1 , output reported IC50.
## Output ≤ 1000 nM
